assay: optical density change of DRC41 E. coli – strain DRC41, OD650, 24 h, E. coli filamentation project, primary screen (AID 1093);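 note: MC1000 strain lacking acrAB efflux and sulA so SOS filamentation is blocked; test concentration not given here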; conditions: E. coli DRC41 growth, higher = more signal, called active from +8 up or from −8 down
Listing: z-score of selected compounds

COMPOUND: C=CC[C@@]1(C(=O)N2CCCCC2)N=C(c2ccc(OCCCO)cc2)O[C@@H]1c1ccccc1N=[N+]=[N-]
z-score: 1.07
--
COMPOUND: C=CC[C@@]1(C(=O)N2CCCCC2)N=C(c2ccc(OCCCO)cc2)O[C@@H]1c1ccccc1CN=[N+]=[N-]
z-score: 0.912
--
COMPOUND: COc1ccc(CCNC(=O)[C@@]2(c3ccc([N+](=O)[O-])cc3)CC(=O)N(CC34CC5CC(CC(C5)C3)C4)[C@@H]2c2ccc(CO)cc2I)cc1
z-score: 0.376
--
COMPOUND: O=C1C2C=CC(C(O)C=Cc3ccc([N+](=O)[O-])cc3)N(n3cnnc3)C2C(=O)N1Cc1ccccc1 (stereo unspecified)
z-score: -0.0783
--
COMPOUND: COC(=O)[C@@]1(Cc2ccccc2)[C@H]2c3cc(C(=O)N(C)C)n(Cc4ccc(OC)c(OC)c4)c3C[C@H]2CN1C(=O)c1ccccc1
z-score: -0.793
--
COMPOUND: CN1C(=O)C2C=CC(C(O)c3ccccc3)N(N3CCCCC3)C2C1=O (stereo unspecified)
z-score: -2.05
--
COMPOUND: CCCNC(=O)[C@@]1(Sc2ccc(C)cc2)CC(=O)N(Cc2ccccc2C(F)(F)F)[C@@H]1c1ccc(CO)cc1I
z-score: -1.57
--
COMPOUND: COC(=O)[C@@]1(Cc2ccc(F)cc2)[C@H]2c3cc(C(=O)N(C)C)n(Cc4ccc(C)o4)c3C[C@H]2CN1C(=O)c1ccccc1
z-score: -0.386
--
COMPOUND: CC(c1ccccc1)C(O)C1C=CC2C(=O)N(C)C(=O)C2N1NC(=O)OC(C)(C)C (stereo unspecified)
z-score: 0.0596
--
COMPOUND: CC(C)OC(=O)C=C1C[C@@H](c2cccc(Cl)c2)O[C@@H](c2cccc(Cl)c2)O1
z-score: -0.391
--
COMPOUND: O=C1[C@H]2C=C(Br)[C@H](C[C@@H]2OCCCCCCO)[C@@]12CO2
z-score: -1.74
--
COMPOUND: C=C(CCCC)/C(=C/C[C@H](OC(=O)c1ccncc1)c1ccc(OCCO)cc1)c1cc(C(=O)OC)ccc1OC
z-score: 0.987
--
COMPOUND: CC(C)N1CC=CC23O[C@@H]4C=CCOC(=O)[C@@H]4[C@H]2C(=O)N(CCCCCO)[C@@H]3C1=O (stereo partly specified)
z-score: 3.13
--
COMPOUND: CCCCCCc1nc(-c2ccc(-c3ccc(Cl)c(Cl)c3)o2)cc2c1[Si](C(C)C)(C(C)C)O[C@H]2c1ccccc1
z-score: 0.488
--
COMPOUND: COCCCNC(=O)[C@]1(Cc2ccccc2)N=C(c2ccc(OCCCO)cc2)O[C@@H]1c1ccccc1CN=[N+]=[N-]
z-score: 1.03
--
COMPOUND: COC(=O)[C@@]1(Cc2ccc(F)cc2)[C@H]2c3cc(C(=O)N(C)C)n(Cc4cc(C)n(C)n4)c3C[C@H]2CN1C(=O)c1ccccc1
z-score: -0.38

Reference source: PubChem BioAssay
